Method: Cytotoxicity against mouse Hepa-1c1c7 cells assessed as cell viability at 10 uM after 24 hrs by crystal violet staining-based assay
Test parameters: read-out: Activity
Measurement label: viability at 24 h, 10 µM

> print(dat)
                           structure.string  test.value
1  O=C(/C=C/c1ccc(O)c(O)c1/C(=C/c1ccc(O)c(O)c1)C(=O)O[C@@H](Cc1ccc(O)c(O)c1)C(=O)O)O[C@@H](Cc1ccc(O)c(O)c1)C(=O)O         94%
2  O=C(/C=C/c1ccc(O)c2c1[C@@H](C(=O)O[C@H](Cc1ccc(O)c(O)c1)C(=O)O)[C@H](c1ccc(O)c(O)c1)O2)O[C@H](Cc1ccc(O)c(O)c1)C(=O)O         85%
3           O=c1cc(-c2ccc(Br)cc2)oc2ccccc12        109%
4  O=C(/C=C/c1ccc(O)c2c1[C@@H](C(=O)O[C@@H](Cc1ccc(O)c(O)c1)C(=O)O)[C@H](c1ccc(O)c(O)c1)O2)O[C@@H](Cc1ccc(O)c(O)c1)C(=O)O         97%

The reported measurements were obtained from ChEMBL document CHEMBL3745701.
